# System: SKBR3 (PI3Kα-Wild Type) cell line
# TEST PROTOCOL: HTRF phospho-AKT(S473) cell assay in SKBR3 cells
# Format: cell-based, human
# RUN CONDITIONS: Homo sapiens, SK-BR-3; SKBR3 (PI3Kα-Wild Type) cells, HTRF phospho-AKT(S473), 2 hours compound incubation, PDGF-BB stimulated
For each record, write down the corresponding IC50.

Completed entries (count: 10):
MOLECULE | TARGET ENTITY | OBSERVED MEASUREMENT
Cc1cc([C@@H](C)Nc2ccc(Cl)nc2C(=O)NS(C)(=O)=O)c2nc(NC34CC(C3)C4)n(C)c(=O)c2c1 | SKBR3 (PI3Kα-Wild Type) cell line | ≥ 5 µM
Cc1cc([C@@H](C)Nc2ccc(Cl)nc2C(=O)NS(C)(=O)=O)c2nc(N3CC[C@H](Oc4cnn(CC(F)(F)F)c4)C3)n(C)c(=O)c2c1 | SKBR3 (PI3Kα-Wild Type) cell line | 1 to 5 µM
Cc1cc([C@@H](C)Nc2ccc(Cl)nc2C(=O)NS(C)(=O)=O)c2nc(N3CCN(c4cc[nH]n4)CC3)n(C)c(=O)c2c1 | SKBR3 (PI3Kα-Wild Type) cell line | 1 to 5 µM
Cc1cc([C@@H](C)Nc2ccc(Cl)nc2C(=O)NS(C)(=O)=O)c2nc(N3C[C@@H]4CC(n5cc(C)cn5)C[C@H]4C3)n(C)c(=O)c2c1 (single isomer, unassigned) | SKBR3 (PI3Kα-Wild Type) cell line | ≥ 5 µM
Cc1cc([C@@H](C)Nc2ccc(Cl)nc2C(=O)NS(C)(=O)=O)c2nc(-c3cccnc3C)n(C)c(=O)c2c1 | SKBR3 (PI3Kα-Wild Type) cell line | ≥ 5 µM
Cc1cc([C@@H](C)Nc2ccc(Cl)nc2C(=O)NS(C)(=O)=O)c2nc(N3CC[C@@H](c4ccn(C)n4)CC3(C)C)n(C)c(=O)c2c1 (relative stereo) | SKBR3 (PI3Kα-Wild Type) cell line | ≥ 5 µM
Cc1cc([C@@H](C)Nc2ccc(Cl)nc2C(=O)NS(C)(=O)=O)c2nc(N3CCCC3)n(C)c(=O)c2c1 | SKBR3 (PI3Kα-Wild Type) cell line | 1 to 5 µM
Cc1cc([C@@H](C)Nc2ccc(Cl)nc2C(=O)NS(=O)(=O)C2COC2)c2nc(N3CCOCC3)n(C)c(=O)c2c1 | SKBR3 (PI3Kα-Wild Type) cell line | 1 to 5 µM
C[C@@H](Nc1cccnc1C(=O)NS(C)(=O)=O)c1cccc2c(=O)n(C)c(N3Cc4ccc(F)cc4C3)nc12 | SKBR3 (PI3Kα-Wild Type) cell line | ≥ 5 µM
Cc1cc([C@@H](C)Nc2ccc(Cl)nc2C(=O)NS(C)(=O)=O)c2nc(N3CCC[C@@H](c4ccncc4)C3)n(C)c(=O)c2c1 (relative stereo) | SKBR3 (PI3Kα-Wild Type) cell line | 1 to 5 µM

Please go through the list and note IC50 for each molecule.
1. Cc1cc([C@@H](C)Nc2ccc(Cl)nc2C(=O)NS(C)(=O)=O)c2nc(N3C[C@@H]4[C@H](C3)[C@H]4n3nccc3C)n(C)c(=O)c2c1
2. Cc1cc([C@@H](C)Nc2ccc(Cl)nc2C(=O)NS(C)(=O)=O)c2nc(N3CCN(c4ncc(C#N)cc4C)CC3)n(C)c(=O)c2c1

Solution:
1. 1 to 5 µM
2. 1 to 5 µM
